assay: Liver microsomal incubations; assay type: in vitro ADME; settings: human liver microsomes, 25 μM, NADPH
HLM % rem. @ 1 h overview
observable: HLM % rem. @ 1 h (%)

In [3]: df
Out[3]:
                                    molecule  unit_of_measure  reported
 0  CC(C)C[C@H](NC(=O)c1ccc(C2CCN(C3CC3)CC2)cc1)C(=O)N1CC[C@H]2OCC(=O)[C@H]21 [compound 9]                %        82
 1  CC(C)C[C@H](NC(=O)c1ccc(C(C)(C)C)cc1)C(=O)N1CC[C@H]2OCC(=O)[C@H]21 [prior art compound 23, reference compound]                %        70
 2  COCCN1CCC(c2ccc(C(=O)N[C@@H](CC(C)C)C(=O)N3CC[C@H]4OCC(=O)[C@H]43)cc2)CC1 [EXAMPLE 8]                %        88
 3  CC(C)C[C@H](NC(=O)c1ccc(N2CCN(C3CC3)CC2)cc1)C(=O)N1CC[C@H]2OCC(=O)[C@H]21 [EXAMPLE 6]                %        83
 4  CC(C)C[C@H](NC(=O)c1ccc(C2CCN(C3CCC3)CC2)cc1)C(=O)N1CC[C@H]2OCC(=O)[C@H]21 [compound 10]                %        83
 5  CC(C)C[C@H](NC(=O)c1ccc(N2CCN(C)CC2)cc1)C(=O)N1CC[C@H]2OCC(=O)[C@H]21 [EXAMPLE 1, reference compound]                %        95
 6  CC(C)C[C@H](NC(=O)c1ccc(N2CCN(C(C)C)CC2)cc1)C(=O)N1CC[C@H]2OCC(=O)[C@H]21 [EXAMPLE 4]                %        88
 7  COCCN1CCN(c2ccc(C(=O)N[C@@H](CC(C)C)C(=O)N3CC[C@H]4OCC(=O)[C@H]43)cc2)CC1 [EXAMPLE 5]                %        90
 8  CCCN1CCN(c2ccc(C(=O)N[C@@H](CC(C)C)C(=O)N3CC[C@H]4OCC(=O)[C@H]43)cc2)CC1 [EXAMPLE 3]                %        83
 9  CC(C)C[C@H](NC(=O)c1ccc(N2CCN(C3CCC3)CC2)cc1)C(=O)N1CC[C@H]2OCC(=O)[C@H]21 [EXAMPLE 7]                %        81
10  CCN1CCN(c2ccc(C(=O)N[C@@H](CC(C)C)C(=O)N3CC[C@H]4OCC(=O)[C@H]43)cc2)CC1 [EXAMPLE 2]                %        88

* * *

The entries below come with measured Human Plasma Stability % rem. @ 1 h values attached.
test: Plasma incubations; type: in vitro ADME; settings: 37° C., 25 μM
observable: Human Plasma Stability % rem. @ 1 h

                              line_notation                           observable  reported
0  CC(C)C[C@H](NC(=O)c1ccc(N2CCN(C(C)C)CC2)cc1)C(=O)N1CC[C@H]2OCC(=O)[C@H]21  Human Plasma Stability % rem. @ 1 h       91%
1  CC(C)C[C@H](NC(=O)c1ccc(C2CCN(C3CCC3)CC2)cc1)C(=O)N1CC[C@H]2OCC(=O)[C@H]21  Human Plasma Stability % rem. @ 1 h       90%
2  CC(C)C[C@H](NC(=O)c1ccc(N2CCN(C3CCC3)CC2)cc1)C(=O)N1CC[C@H]2OCC(=O)[C@H]21  Human Plasma Stability % rem. @ 1 h       92%
3  CCN1CCN(c2ccc(C(=O)N[C@@H](CC(C)C)C(=O)N3CC[C@H]4OCC(=O)[C@H]43)cc2)CC1  Human Plasma Stability % rem. @ 1 h       93%
4  CC(C)C[C@H](NC(=O)c1ccc(N2CCN(C3CC3)CC2)cc1)C(=O)N1CC[C@H]2OCC(=O)[C@H]21  Human Plasma Stability % rem. @ 1 h       93%

* * *

target: Human recombinant cathepsin K (Homo sapiens); construct: B. Turk, Josef, Stefan Institute, Ljubljana, Slovenia; assay: In vitro cathepsin Ki inhibition measurements; type: biochemical; conditions: Table 1, read-out: In vitro Ki (nM) vs Cath K
Sequence (P43235 115-329): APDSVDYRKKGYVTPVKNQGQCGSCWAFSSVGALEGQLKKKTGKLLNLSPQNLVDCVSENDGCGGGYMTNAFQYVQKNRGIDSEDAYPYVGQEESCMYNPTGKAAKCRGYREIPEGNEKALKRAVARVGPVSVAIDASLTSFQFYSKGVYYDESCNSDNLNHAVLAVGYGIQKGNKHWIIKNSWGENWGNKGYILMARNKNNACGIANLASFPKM
observable: Ki

>>> df
                              line_notation  reported
0  COCCN1CCN(c2ccc(C(=O)N[C@@H](CC(C)C)C(=O)N3CC[C@H]4OCC(=O)[C@H]43)cc2)CC1     29 nM
1  CC(C)C[C@H](NC(=O)c1ccc(C2CCN(C3CCC3)CC2)cc1)C(=O)N1CC[C@H]2OCC(=O)[C@H]21      5 nM
2  COCCN1CCC(c2ccc(C(=O)N[C@@H](CC(C)C)C(=O)N3CC[C@H]4OCC(=O)[C@H]43)cc2)CC1     36 nM
3  CCCN1CCN(c2ccc(C(=O)N[C@@H](CC(C)C)C(=O)N3CC[C@H]4OCC(=O)[C@H]43)cc2)CC1     18 nM
4  CCN1CCN(c2ccc(C(=O)N[C@@H](CC(C)C)C(=O)N3CC[C@H]4OCC(=O)[C@H]43)cc2)CC1     15 nM
5  CC(C)C[C@H](NC(=O)c1ccc(C2CCN(C3CC3)CC2)cc1)C(=O)N1CC[C@H]2OCC(=O)[C@H]21      8 nM
6  CC(C)C[C@H](NC(=O)c1ccc(N2CCN(C3CC3)CC2)cc1)C(=O)N1CC[C@H]2OCC(=O)[C@H]21      4 nM
7  CC(C)C[C@H](NC(=O)c1ccc(N2CCN(C(C)C)CC2)cc1)C(=O)N1CC[C@H]2OCC(=O)[C@H]21     19 nM
8  CC(C)C[C@H](NC(=O)c1ccc(N2CCN(C3CCC3)CC2)cc1)C(=O)N1CC[C@H]2OCC(=O)[C@H]21      3 nM

* * *

assay: LogD determinations; assay type: physicochemical; details: 1-octanol/PBS; PBS pH 7.4/1-octanol, ion-count method
observable: logD

>>> df
                              line_notation  reported
0  CCN1CCN(c2ccc(C(=O)N[C@@H](CC(C)C)C(=O)N3CC[C@H]4OCC(=O)[C@H]43)cc2)CC1      0.74
1  COCCN1CCN(c2ccc(C(=O)N[C@@H](CC(C)C)C(=O)N3CC[C@H]4OCC(=O)[C@H]43)cc2)CC1       0.9
2  CCCN1CCN(c2ccc(C(=O)N[C@@H](CC(C)C)C(=O)N3CC[C@H]4OCC(=O)[C@H]43)cc2)CC1      1.66
3  CC(C)C[C@H](NC(=O)c1ccc(N2CCN(C3CCC3)CC2)cc1)C(=O)N1CC[C@H]2OCC(=O)[C@H]21      1.88
4  CC(C)C[C@H](NC(=O)c1ccc(N2CCN(C3CC3)CC2)cc1)C(=O)N1CC[C@H]2OCC(=O)[C@H]21      1.88
5  COCCN1CCC(c2ccc(C(=O)N[C@@H](CC(C)C)C(=O)N3CC[C@H]4OCC(=O)[C@H]43)cc2)CC1      0.61
6  CC(C)C[C@H](NC(=O)c1ccc(C2CCN(C3CC3)CC2)cc1)C(=O)N1CC[C@H]2OCC(=O)[C@H]21      1.99

// provenance: patent US7846935B2
